system: Melanoma subpanel; experiment: cells; conditions: Melanoma panel mean
MG_MID, TGI for assorted compounds
Just the number in µM, nothing appended.

Below: 4 compounds and their reported MG_MID, TGI.
O=C(O)CCN1C(=O)/C(=C/C(Cl)=C/c2ccc([N+](=O)[O-])cc2)SC1=S
13.9
O=C1/C(=C/C(Cl)=C/c2ccc([N+](=O)[O-])cc2)SC(=S)N1/N=C\C(Cl)=C\c1ccc([N+](=O)[O-])cc1
38.0
O=C(O)C(Cc1ccccc1)N1C(=O)/C(=C/C(Cl)=C/c2ccc([N+](=O)[O-])cc2)SC1=S (centres unmarked)
17.9
O=C1NC(=S)S/C1=C\C(Cl)=C\c1ccc([N+](=O)[O-])cc1
16.1

Okay, next one:
What value of MG_MID, TGI has been recorded for this entry: O=C1/C(=C/C(Cl)=C/c2ccc([N+](=O)[O-])cc2)SC(=S)N1c1ccc(O)cc1
14.4
